- target.system: TYK2 (Homo sapiens (Human), UniProt P29597)
- Sequence (P29597 871-1187): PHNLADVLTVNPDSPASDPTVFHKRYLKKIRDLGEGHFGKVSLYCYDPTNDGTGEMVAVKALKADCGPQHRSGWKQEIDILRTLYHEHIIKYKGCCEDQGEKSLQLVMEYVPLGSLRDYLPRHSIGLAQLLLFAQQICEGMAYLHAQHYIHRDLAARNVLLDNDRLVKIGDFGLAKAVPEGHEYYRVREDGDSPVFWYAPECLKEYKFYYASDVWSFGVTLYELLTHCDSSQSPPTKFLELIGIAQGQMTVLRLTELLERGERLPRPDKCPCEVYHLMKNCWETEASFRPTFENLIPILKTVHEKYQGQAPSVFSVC
- run.description: JAK kinase assay (HTRF), TYK2
- measurement.setup: catalytic domain (aa 871-1187), GST-tag, ATP at Km (13 μM)
pEC50: −log10 of the molar value.
recorded.endpoint: pEC50

C[C@@]12CN(c3ncnc4[nH]ccc34)CC[C@@H]1CN(S(=O)(=O)CC(F)(F)F)C2 (racemic)    5.50
Cc1cc(N2C[C@H]3CCN(c4ncnc5[nH]ccc45)C[C@@]3(C)C2)ncc1C#N (racemic)    6.14
C[C@]12CN(C#N)C[C@H]1CCN(c1ncnc3[nH]ccc13)C2    6.91
CC[C@@]12CN(c3ncnc4[nH]ccc34)CC[C@@H]1CCN(S(N)(=O)=O)C2 [Example 18]    7.77

---

- target.system: JAK2 (Homo sapiens (Human), UniProt O60674)
- Sequence (O60674 849-1124): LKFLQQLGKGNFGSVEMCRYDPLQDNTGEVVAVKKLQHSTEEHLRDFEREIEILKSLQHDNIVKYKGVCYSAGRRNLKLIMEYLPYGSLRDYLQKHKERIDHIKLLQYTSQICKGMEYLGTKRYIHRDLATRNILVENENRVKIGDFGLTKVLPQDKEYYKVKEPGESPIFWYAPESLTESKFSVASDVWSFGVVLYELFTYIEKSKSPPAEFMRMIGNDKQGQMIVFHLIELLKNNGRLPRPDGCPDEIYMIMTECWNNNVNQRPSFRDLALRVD
- run.description: JAK kinase assay (HTRF), JAK2
- measurement.setup: catalytic domain, His-tag, ATP at Km (4 μM)
- Method: Human baculovirus-expressed JAK1, 2, 3 and TYK2 were purchased from Carna Biosciences, Inc. All four purified enzymes contain only the catalytic domain. […] Inhibition of phosphorylation of a synthetic peptide was measured in an HTRF-based assay using the TK substrate-Biotin from the Cisbio HTRFKinEASE TK kit. […] The HTRF signal is read using an Envision plate reader.
recorded.endpoint: EC50 (nM)

Cc1cc(C#N)cnc1N1C[C@H]2CCN(c3ncnc4[nH]ccc34)C[C@@]2(C)C1 (racemic)    179
CCC12CNCCC1CCN(c1ncnc3[nH]ccc13)C2 (stereo not shown) [Intermediate 10]    25
C[C@]12CN(c3ccncn3)C[C@H]1CCN(c1ncnc3[nH]ccc13)C2 (racemic)    72
Cc1nc(N2C[C@H]3CCN(c4ncnc5[nH]ccc45)C[C@@]3(C)C2)ccc1C#N (racemic)    103

---

- target.system: JAK2 (Homo sapiens (Human), UniProt O60674)
- run.description: JAK kinase assay (HTRF), JAK2
- measurement.setup: catalytic domain, His-tag, ATP at Km (4 μM)
recorded.endpoint: EC50

CC[C@]12CN(C(C)=O)CC[C@H]1CCN(c1ncnc3[nH]ccc13)C2 (relative stereo) [Example 15]    453 nM
Cc1cc(N2CC[C@H]3CCN(c4ncnc5[nH]ccc45)C[C@@]3(C)C2)ncc1C#N (racemic) [Example 8]    269 nM
Cc1nc(N2CC[C@H]3CCN(c4ncnc5[nH]ccc45)C[C@@]3(C)C2)ccc1C#N (racemic) [Example 10]    469 nM
CC12CN(c3ccc(C#N)cn3)C[C@H]1CCN(c1ncnc3[nH]ccc13)C2 (stereo in doubt) [Example 33]    5 nM
C[C@@]12CN(c3ncnc4[nH]ccc34)CC[C@@H]1CN(S(=O)(=O)CC(F)(F)F)C2 (racemic) [Example 31]    455 nM
C[C@@]12CN(c3ncnc4[nH]ccc34)CC[C@@H]1CCN(S(C)(=O)=O)C2 (racemic) [Example 13]    90 nM
C[C@]12CN(c3ncccc3CO)C[C@H]1CCN(c1ncnc3[nH]ccc13)C2 (racemic) [Example 36]    120 nM

---

Catalogue of pEC50 values
- target.system: UniProt:O60674
- run.description: JAK kinase assay (HTRF), JAK2
- measurement.setup: catalytic domain, His-tag, ATP at Km (4 μM)
- Procedure: Human baculovirus-expressed JAK1, 2, 3 and TYK2 were purchased from Carna Biosciences, Inc. All four purified enzymes contain only the catalytic domain. […] Inhibition of phosphorylation of a synthetic peptide was measured in an HTRF-based assay using the TK substrate-Biotin from the Cisbio HTRFKinEASE TK kit. […] The HTRF signal is read using an Envision plate reader.
pEC50: −log10 of the molar value.
recorded.endpoint: pEC50

C[C@@]12CN(c3ncnc4[nH]ccc34)CC[C@@H]1CN(S(=O)(=O)NCC#N)C2 (racemic) [Example 30]    7.25
C[C@@]12CN(C#N)C[C@@H]1CCN(c1ncnc3[nH]ccc13)C2 [Example 28]    6.08
CC[C@]12CN(c3nnc(Br)s3)CC[C@H]1CCN(c1ncnc3[nH]ccc13)C2 (relative stereo) [Example 20]    7.77
C[C@]12CN(C(=O)CC#N)C[C@H]1CCN(c1ncnc3[nH]ccc13)C2 (racemic) [Example 32]    7.17
Cc1cc(C#N)cnc1N1CC[C@H]2CCN(c3ncnc4[nH]ccc34)C[C@@]2(C)C1 (racemic) [Example 11]    6.42
C[C@@]12CN(c3ncnc4[nH]ccc34)CC[C@@H]1CN(S(N)(=O)=O)C2 (racemic) [Example 27]    7.10
C[C@]12CN(c3ccc(C#N)nn3)C[C@H]1CCN(c1ncnc3[nH]ccc13)C2 (racemic) [Example 42]    7.28
